Target: human glucagon receptor (Homo sapiens, UniProt P47871)
Construct: expressed in transfected cells; host or cells: CHO-K1 cells, stably transfected
Sequence (P47871 26-477): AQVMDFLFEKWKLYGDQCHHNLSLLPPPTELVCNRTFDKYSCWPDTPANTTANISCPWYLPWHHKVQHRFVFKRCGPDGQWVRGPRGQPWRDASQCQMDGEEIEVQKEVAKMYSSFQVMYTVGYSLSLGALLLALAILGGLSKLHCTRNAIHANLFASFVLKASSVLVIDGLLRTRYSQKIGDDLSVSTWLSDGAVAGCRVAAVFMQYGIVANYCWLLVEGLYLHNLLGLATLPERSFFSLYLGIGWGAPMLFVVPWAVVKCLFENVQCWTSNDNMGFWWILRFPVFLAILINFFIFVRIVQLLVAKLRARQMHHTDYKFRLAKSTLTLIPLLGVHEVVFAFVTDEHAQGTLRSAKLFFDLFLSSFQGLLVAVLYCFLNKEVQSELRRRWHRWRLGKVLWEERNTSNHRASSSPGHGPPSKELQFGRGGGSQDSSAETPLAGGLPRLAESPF
Assay: Glucagon cAMP assay (Cisbio cAMP detection); further: 100 pM glucagon challenge
Format: cell-based
Experimental: The Cisbio cAMP detection assay is used to determine the ability of punitive glucagon antagonist to block glucagon induced cAMP production. Potential glucagon antagonists are re-suspended and diluted in 100% DMSO. […] Plates are incubated for an additional 60 min at room temperature prior to being read on the Perkin Elmer fluorescent plate reader. […] Converted data is then analyzed using the Pfizer data analysis program. IC50 values are determined from the generated sigmoidal dose response curves. […]
Kb vs 1000 nM: less than gives Condition met; not less than gives Condition not met.

- compound: "CC(C)CC(Nc1ccc(C(=O)NCCS(=O)(=O)O)cn1)c1ccc(-c2ccc(C(F)(F)F)cc2)cc1 (racemic)"
  label class: "Condition not met"
- compound: "Cc1cccc(C)c1-c1ccc(C(CC(C)C)Nc2ccc(C(=O)NCCC(=O)O)cn2)cc1 (racemic)"
  label class: "Condition not met"
- compound: "CCCC(Nc1ccc(C(=O)NCCC(=O)O)cn1)c1ccc(-c2ccc(C(F)(F)F)cc2)c(OC)c1 (centres unmarked)"
  label class: "Condition met"
- compound: "CC(C)CC(Nc1ccc(C(=O)NCCC(=O)O)cn1)c1ccc(-c2ccccc2Cl)cc1 (racemic)"
  label class: "Condition met"
- compound: "CC(C)CC(Nc1ccc(C(=O)NCCC(=O)O)cn1)c1ccc(-c2ccc(F)cc2)cc1 (racemic)"
  label class: "Condition met"
- compound: "CC(C)CC(Oc1ccc(C(=O)NCCC(=O)O)cn1)c1ccc(-c2ccc(C(F)(F)F)cc2)cc1 (racemic)"
  label class: "Condition not met"
- compound: "CC(C)C(Nc1ccc(C(=O)NCCC(=O)O)cn1)c1ccc(-c2ccc(C(F)(F)F)cc2)cc1 (single isomer, unassigned; (-)) [Example 1.15]"
  label class: "Condition met"
- compound: "Cc1ccccc1-c1ccc(C(CC(C)C)Nc2ccc(C(=O)NCCC(=O)O)cn2)cc1 (racemic)"
  label class: "Condition met"
- compound: "COC1CC(C(Nc2ccc(C(=O)NCCC(=O)O)cn2)c2ccc(-c3ccc(C(F)(F)F)cc3)cc2)C1 (centres unmarked)"
  label class: "Condition met"
- compound: "CC(C)CC(Nc1ccc(C(=O)NC[C@@H](O)C(=O)O)cn1)c1ccc(-c2ccc(C(F)(F)F)cc2)cc1 (mixture of isomers)"
  label class: "Condition not met"
- compound: "CCC(Nc1ccc(C(=O)NCCC(=O)O)cn1)c1ccc(-c2ccc(C(F)(F)F)cc2)cc1 (single isomer, unassigned; isomer 2) [Example 1.13]"
  label class: "Condition met"
- compound: "O=C(O)CCNC(=O)c1ccc(NC(c2ccc(-c3ccc(C(F)(F)F)cc3)cc2)C2CCC2)nc1 (racemic)"
  label class: "Condition met"
- compound: "Cc1cc(C(CC(C)C)Nc2ccc(C(=O)NCCC(=O)O)cn2)cc(C)c1-c1ccc(C(F)(F)F)cc1 (racemic)"
  label class: "Condition met"
